ASSAY SYSTEM: T1, GFP-9S library array, motif 4 ND N98E;D124W (synthetic construct, N98E;D124W)
T1 chain: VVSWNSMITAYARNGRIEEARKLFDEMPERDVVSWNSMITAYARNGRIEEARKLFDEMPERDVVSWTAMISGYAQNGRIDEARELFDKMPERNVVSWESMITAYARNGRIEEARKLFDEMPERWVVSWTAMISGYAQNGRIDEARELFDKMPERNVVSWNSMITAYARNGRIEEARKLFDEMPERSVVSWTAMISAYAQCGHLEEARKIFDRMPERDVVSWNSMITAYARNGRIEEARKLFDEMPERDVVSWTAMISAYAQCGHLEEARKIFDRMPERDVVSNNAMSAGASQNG
ASSAY OVERVIEW: high-throughput RNA pulldown from lysate on Ni-NTA beads; HRP: 50 mM Tris pH 8, 150 mM NaCl, 1 mM beta-mercaptoethanol, 50 ug/ml BSA, 3 ug/ml yeast RNA, 0.5% heparin; ITC and FP: Tris pH 8, 200 mM KCl, 5% glycerol; MST: 50 mM Tris pH 8, 200 mM NaCl, 1 mM DTT, BSA, heparin, 0.05% Tween 20
MEASUREMENT PARAMETERS: tags: N-terminal His-eGFP; label: 5' IRDye 800CW
ASSAY ENDPOINT: Kd (nM)
Please state the figure in nM; there is no need to write the unit.

BINDER	Kd (nM)
AUUAAACGUGA (ssRNA) [IR-rpoA-A]	630

Here is the next item to consider.
[in] Can you share its Kd? I mean this binder: AUUAUACGUGA (ssRNA) [IR-rpoA-U]
[out] 648
